Recorded values, source PubChem BioAssay AID179.

system: CEM cells HIV-1 protection, formazan growth assay; test: NCI AIDS Antiviral Assay
Readout Kind: EC50

// worked examples, EC50 included
Compound	EC50
c1ccc(SC23C4C5C6C4C2C6C53)nc1 (configuration not stated)	> 151 µM
C=CCn1c(N)c(C#N)c(C#N)c1-c1ccccc1	> 200 µM
COC(=O)C(=O)C(C(=O)C(=O)Nc1ccc([N+](=O)[O-])cc1)c1nc2ccccc2[nH]c1=O (configuration not stated)	> 575 µM

I looked up COc1ccc2c(c1)OC[C@@H]1c3ccc(OCc4ccccc4)cc3O[C@H]21 and its EC50 for CEM cells HIV-1 protection, formazan growth assay was 46.8 µM

I looked up N#CC1CC12c1ccccc1C(=O)c1ccccc12 (configuration not stated) and its EC50 for CEM cells HIV-1 protection, formazan growth assay was 135 µM

I looked up Cc1ccccc1NC(=S)N=Nc1c(O)[nH]c2ccccc12 and its EC50 for CEM cells HIV-1 protection, formazan growth assay was > 200 µM

I looked up O=c1cnn(C2OC(CO)C(O)C(F)C2O)c(=O)[nH]1 (configuration not stated) and its EC50 for CEM cells HIV-1 protection, formazan growth assay was > 200 µM

I looked up Cc1cc(S(=O)(=O)Nc2cc(N)[nH]n2)c(SCc2nc(N)nc(N(C)C)n2)cc1Cl and its EC50 for CEM cells HIV-1 protection, formazan growth assay was > 200 µM

I looked up CC1(C)SSC(C)(C)SS1 and its EC50 for CEM cells HIV-1 protection, formazan growth assay was > 200 µM

I looked up CC(=O)Oc1ccc2c(c1)Oc1cc(OC(C)=O)ccc1C21OC(=O)c2ccccc21 and its EC50 for CEM cells HIV-1 protection, formazan growth assay was > 200 µM

I looked up CCCc1cc(=O)oc2c3c(cc(OC)c12)O[C@H](C)[C@H](C)[C@@H]3O and its EC50 for CEM cells HIV-1 protection, formazan growth assay was > 200 µM

I looked up O=C(CCCN1CCC(Nc2ccc(F)cc2)(c2nnnn2C2CCCCC2)CC1)c1ccc(F)cc1 and its EC50 for CEM cells HIV-1 protection, formazan growth assay was > 200 µM

I looked up CCC/C(Cl)=N\OC(=O)Nc1cccc(C(F)(F)F)c1 and its EC50 for CEM cells HIV-1 protection, formazan growth assay was > 200 µM

====

Documented pIC50 across a set of compounds
system: CEM cells HIV-1 protection, formazan growth assay; assay: NCI AIDS Antiviral Assay; conditions: measured here: growth of uninfected CEM cells
// pIC50: -log10(molar conc.)

// worked examples, pIC50 included
> print(dat)
                                   compound  readout.kind  readout.value
1  COC(=O)C(N)CSCc1ccccc1 (stereo not given)         pIC50           3.23
2  COC(=O)c1ccccc1N=Cc1ccc(N(CCC#N)S(=O)(=O)c2ccccc2)cc1         pIC50           3.32

Entry COC(=O)CNC(=O)CNC(=O)CSc1nnc(COc2ccc(Cl)cc2)n1-c1ccccc1 ; pIC50 = 4.51

Entry N=C(N)SCCc1cn2ccccc2n1 ; pIC50 = 4.37

Entry O=C(ONC(=O)[C@H]1C2C=CC(C2)[C@@H]1C(=O)NOC(=O)c1ccccc1)c1ccccc1 ; pIC50 = 5.27

Entry COc1ccc(/C=C2\N=C(N/N=C\C(O)C(O)C(O)C(O)CO)NC2=O)cc1 (stereo not given) ; pIC50 = 3.97

====

Documented pIC50 across a set of molecules
system: CEM cells HIV-1 protection, formazan growth assay; assay: NCI AIDS Antiviral Assay; details: measured here: growth of uninfected CEM cells
pIC50: −log10 of the molar value.

// worked examples, pIC50 included
> print(dat)
                                   molecule  readout.value
1  C=C1CN(Cc2ccccc2)[C@@H]2CCCCC[C@H](C#N)[C@H]12           3.91
2        Cc1[nH]cc2c1C(c1ccccc1F)=NCC(=O)N2         < 3.64
3  OCC1OC(n2cnc3c(=S)nc[nH]c32)C(O)C1O (stereo unspecified)           3.21
4  CC1=C(C(=O)Nc2ccccc2)C2(CCCCC2)C(C#N)=C(SCC(=O)Nc2ccc(Br)cc2)N1           4.91
5  CN1C2CCC1CC(C)(O)C2 (stereo unspecified)         < 3.70
6  Cc1ccc(S[C@@H](C)[C@@](O)(C(N)=O)c2ccccc2)cc1           4.52

Read the next record carefully.
I looked up O=C(O)CCC(=O)Oc1ccc(O)c2c1CCCC2=O and its pIC50 for CEM cells HIV-1 protection, formazan growth assay was < 3.47

====

system: CEM cells HIV-1 protection, formazan growth assay; assay: NCI AIDS Antiviral Assay;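 active = compounds giving half or more protection of infected cells from virus-caused growth loss, again on retest; inactive = the rest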
Permitted responses: active, inactive

> print(dat)
                                   compound  qualitative.label
1  Cn1c(=O)n2n(c1=O)C1C3C4C3C3C5(COCC135)C42 (stereo not given)           inactive
2  CCc1ccc(/C(C#N)=C/c2ccc(N(C)CCC#N)cc2)cc1           inactive
3  C[C@@H]1Cc2c(-c3cc(-c4cc(-c5c(O)cc(O)c6c5C[C@@H](C)N[C@@H]6C)c5ccccc5c4O)c(O)c4ccccc34)c(O)cc(O)c2[C@@H](C)N1             active
4  COc1ccc(-c2cc(C(=O)Nc3cccc(C(F)(F)F)c3)[nH]c(=S)n2)cc1           inactive

Note: attention shifts to another entry.
Identify the outcome logged in this assay for the compound shown: COc1cc(/C=C2\CCOC2=O)ccc1OCc1ccccc1
inactive

====

Documented pIC50 across a set of molecules
tested on: CEM cells HIV-1 protection, formazan growth assay; test: NCI AIDS Antiviral Assay; details: measured here: growth of uninfected CEM cells
// pIC50: -log10(molar conc.)

// worked examples, pIC50 included
> print(dat)
                                   molecule  readout.value
1  CC1=NN(C(=O)c2ccccc2O)C(=O)/C1=C/c1ccco1           6.22
2  O=C(/C=C/c1ccc(O)cc1)OCC1OC(Oc2cc(O)c3c(c2)OC(c2ccc(O)cc2)CC3=O)C(O)C(O)C1O (configuration not stated)           4.56
3  NC1CCC(C(=O)C2CCC(O)CC2O)CC1 (configuration not stated)           4.74
4  COc1ccc2nc3cccc([N+](=O)[O-])c3c(NCCC(=O)O)c2c1           5.34

Entry c1ccc([P+](CCOCC[P+](c2ccccc2)(c2ccccc2)c2ccccc2)(c2ccccc2)c2ccccc2)cc1 ; pIC50 = 4.31

Entry CC1=NN2C(=O)CSC2=NC(C)(C)C1 ; pIC50 = 2.93

====

test system: CEM cells HIV-1 protection, formazan growth assay; assay: NCI AIDS Antiviral Assay;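 active means compounds giving half or more protection of infected cells from virus-caused growth loss, again on retest; inactive means the rest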
Permitted responses: t = active, f = inactive

> print(dat)
                                   molecule  qualitative.label
1  CCc1cccc(NC(=O)c2cc(/C=C/c3ccccc3)[nH]c(=S)n2)c1                  f

Identify the outcome logged in this assay for the molecule shown: N#CC1(C#N)C2=C(CCCC2)NC(c2ccc(Br)cc2)C1(C#N)C#N (centres undefined)
f

Identify the outcome logged in this assay for the molecule shown: O=c1ccn(C(CO)OC(CO)CCP(=O)(O)O)c(=O)[nH]1 (centres undefined)
f

Identify the outcome logged in this assay for the molecule shown: COC(=O)c1cc(C(=O)OC)c(CC(=O)C(=O)NC2C3CC4CC(C3)CC2C4)nc1CC(=O)C(=O)NC1C2CC3CC(C2)CC1C3 (centres undefined)
f

====

test system: CEM cells HIV-1 protection, formazan growth assay; test: NCI AIDS Antiviral Assay;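 active = compounds giving half or more protection of infected cells from virus-caused growth loss, again on retest; inactive = the rest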
Permitted responses: 1.0 (active), 0.0 (inactive)

Molecule	Qualitative Label
Cc1ccc(S(=O)(=O)NC(=S)S)cc1	0.0

Identify the outcome logged in this assay for the molecule shown: Cn1nc2ccccc2cc1=O
0.0

Identify the outcome logged in this assay for the molecule shown: Cc1csc2[n+]1C(=O)/C(=C\c1ccc([N+](=O)[O-])cc1)S2
0.0

Identify the outcome logged in this assay for the molecule shown: COc1ccc(/C=C2\N=C3N(Cc4ccccc4)C=C(N)N3C2=O)cc1
0.0

Identify the outcome logged in this assay for the molecule shown: NC(=O)c1nnsc1-c1ccco1
0.0

Identify the outcome logged in this assay for the molecule shown: CCOC(=O)/C(C#N)=C\c1ccc(N(CCC(=O)O)CCC(=O)O)c(I)c1
1.0

====

test system: CEM cells HIV-1 protection, formazan growth assay; assay: NCI AIDS Antiviral Assay;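 active = compounds giving half or more protection of infected cells from virus-caused growth loss, again on retest; inactive = the rest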
Permitted responses: active, inactive

Compound	Measured On	Qualitative Label
C=CCOc1cccc(C2(O)c3ccccc3C3=NCCCN32)c1 (stereo not drawn)	CEM cells HIV-1 protection, formazan growth assay	inactive

Identify the outcome logged in this assay for the compound shown: COc1c2occc2c(N=Cc2ccncc2)c2ccc(=O)oc12
inactive
